Hello, the source for this data is PubChem BioAssay (NCATS), in case you need it.

- Assay text: qHTS for differential inhibitors of proliferation of Plasmodium falciparum line GB4 (AID 1816);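 further: potency means the concentration at half of the fitted maximal effect; parasite growth measured after 72 h incubation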
- Condition: Plasmodium falciparum GB4 proliferation inhibition; series mostly up to 28.7 µM
Results filed as inconclusive are left out. The source made the active and inactive calls. The call rests on the fitted dose curve; in most records, active means well fitted curve in the direction sought with a large enough effect; inconclusive means small, poorly fitted or top-dose-only effect, or another doubt; inactive means no such curve, though single readings can be large or run the other way.
# maps each entry to its Potency

Lookup result for CN1CCc2c(cc(O)c(O)c2Cl)C(c2cccc(Cl)c2)C1 (centres undefined) ; measured Potency: 5.01 µM (active)

For reference, reported Potency for NC(=NCc1ccc(Cl)c(Cl)c1)NC(=O)c1nc(Cl)c(N)nc1N stands at 0.891 µM (active)

The reported Potency of the compound Nc1ncnc2c1nc(Br)n2C1O[C@H]2COP(=O)(O)O[C@@H]2C1O (some centres undefined) was 12.6 µM (active)

Looking up CCCC1O[C@@H]2C[C@H]3[C@@H]4CCC5=CC(=O)C=C[C@]5(C)C4[C@@H](O)C[C@]3(C)[C@]2(C(=O)CO)O1 (some centres undefined) , I see its Potency listed as 3.16 µM (active)

---

- Assay text: NFAT Signaling Pathway (AID 444);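 further: carbachol stimulus at about its EC50 of 1 µM final; on the % scale 0 is the no-effect control and ±100 the full control effect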
- Condition: Jurkat NFAT-bla M1, carbachol, beta-lactamase ratio, 5 h; at 7.69 µM (top of the series) unless noted
Records with an inconclusive call do not appear.
Readout: activity change, negative = inhibition (%)
// units = %; emit number, no label

Consider the worked cases shown below.
Smiles record: COc1cccc(Cn2c(=O)c(-c3cccs3)nc3cnc(OCc4ccccc4)nc32)c1
activity change, negative = inhibition [%]: 3.84
//
Smiles record: COc1ccc(-n2c(=O)c(-c3ccc(F)cc3)nc3cnc(N4CCNCC4)nc32)cc1
activity change, negative = inhibition [%]: 27.8
//
Smiles record: COc1cccc(Cn2c(=O)c(-c3ccccc3)nc3cncnc32)c1
activity change, negative = inhibition [%]: -5.39
//
Smiles record: CN(Cc1ccco1)c1ncnc2ccc(-c3ccccc3C#N)cc12
activity change, negative = inhibition [%]: 7.18
//
Smiles record: CS(=O)(=O)Nc1cccc(-c2nccc(-n3ccnc3)n2)c1
activity change, negative = inhibition [%]: -0.156

Entry CN(Cc1ccco1)c1ccnc(-c2cccc(NS(C)(=O)=O)c2)n1 ; activity change, negative = inhibition = -2.37

Sure, the documented activity change, negative = inhibition for COc1ccc(-n2c(=O)c(-c3ccc(Cl)cc3)nc3cncnc32)cc1 is -2.56

Looking up O=C(c1ccco1)N1CCC[C@@]2(CCN(c3ccccn3)C2)C1 , I found its activity change, negative = inhibition recorded as -3.78

response.value for COc1ccc(CNc2ncncc2-c2ccoc2)c(OC)c1 (field: activity change, negative = inhibition) = 5.94

activity change, negative = inhibition recorded for this compound, COc1cccc(Nc2ncc3nc(-c4ccc(Cl)cc4)c(=O)n(C[C@H]4CCCO4)c3n2)c1 , is 2.35

---

- Tested system: Dual specificity protein kinase CLK4 (Homo sapiens) (UniProt Q9HAZ1)
- Sequence (Q9HAZ1 whole entry, looked up): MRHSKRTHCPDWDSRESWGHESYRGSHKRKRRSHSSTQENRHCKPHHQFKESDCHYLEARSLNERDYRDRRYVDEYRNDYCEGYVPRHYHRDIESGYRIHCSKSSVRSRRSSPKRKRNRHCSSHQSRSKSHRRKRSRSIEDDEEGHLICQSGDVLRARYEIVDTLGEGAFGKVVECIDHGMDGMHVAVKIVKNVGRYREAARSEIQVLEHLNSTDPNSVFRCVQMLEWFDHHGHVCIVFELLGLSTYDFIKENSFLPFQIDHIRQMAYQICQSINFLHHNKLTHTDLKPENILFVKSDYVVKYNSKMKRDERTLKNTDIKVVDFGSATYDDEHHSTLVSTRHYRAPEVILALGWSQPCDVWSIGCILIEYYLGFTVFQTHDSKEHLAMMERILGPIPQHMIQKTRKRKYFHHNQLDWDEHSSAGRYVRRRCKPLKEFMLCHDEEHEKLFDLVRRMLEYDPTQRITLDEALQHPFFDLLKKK
- Assay text: qHTS Assay for Inhibitors of CDC-like Kinase 4 (ADP-FP Assay) (AID 1795); further: nearly all actives have a fitted effect of over 60% in size
- Condition: Transcreener ADP fluorescence polarization; series mostly up to 50 µM
Results filed as inconclusive are left out. Activity calls are given as the source filed them. Calls come from the whole dose curve; as a rule, active = well fitted inhibition curve with a large enough effect; inconclusive = small, poorly fitted or top-dose-only effect; inactive = flat fitted curve, though single readings scatter.
Reply using exactly one outcome from active, inactive

Study these solved cases before continuing.
Smiles record: COc1ccc(-c2nc3cnc(N(C)C)nc3n(Cc3cccs3)c2=O)cc1
Class assignment: inactive
--
Smiles record: Cc1ccccc1-c1cc(NCc2cccnc2)ncn1
Class assignment: inactive
--
Smiles record: COc1ccccc1-c1nc(NCc2cccs2)c2ccccc2n1
Class assignment: inactive
--
Smiles record: CN1CCN(c2ncc3nc(-c4ccc(F)cc4)c(=O)n(C4CC4)c3n2)CC1
Class assignment: inactive
--
Smiles record: O=c1c(-c2ccc(F)cc2)nc2cncnc2n1-c1ccccc1
Class assignment: inactive
--
Smiles record: COc1ccc2[nH]cc(CCNc3nc(-c4cccc(C#N)c4)nc4ccccc34)c2c1
Class assignment: inactive

Exercise: Test call, this molecule: COc1ccc(CNc2ncncc2-c2ccc(N(C)C)cc2)c(OC)c1
Key: inactive

Exercise: Dear colleague, could you share the recorded outcome for N#Cc1cccc(-c2ccc3ncnc(NC4CCNCC4)c3c2)c1 when you have a moment?
Key: active

---

- Assay text: Confirmation and Secondary Assay for Modulators of Hemoglobin Beta Chain Splicing at IVS2 654 locus (AID 910);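 further: HeLa cells stably carrying EGFP split by mutant beta-globin IVS2-654 intron; per-well total GFP intensity by laser scanning cytometry after 2-day treatment; % of control where 0% means no effect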
- Condition: HeLa EGFP-654 splicing reporter, GFP fluorescence, 48 h; series mostly up to 38.3 µM
Active and inactive are the calls of the source. Calls follow the shape of the dose curve; as a rule, active = well fitted activation curve with a large enough effect; inconclusive = small, poorly fitted or top-dose-only effect; inactive = flat fitted curve, though single readings scatter.
Parameter call: string, one of active, inactive

Compound: CC(=O)NCCNc1nc(-c2ccccc2CN(C)C)nc2ccccc12
Class assignment: inactive
--
Compound: c1ccc2c(N3CCNCC3)nc(-c3ccoc3)nc2c1
Class assignment: inactive
--
Compound: C=CCc1ccc(OC(=O)c2ccccc2)c(OC)c1
Class assignment: inactive
--
Compound: N#Cc1cccc(-c2cc(-n3ccnc3)ncn2)c1
Class assignment: inactive
--
Compound: CN(C)Cc1ccccc1-c1nccc(NC2CC2)n1
Class assignment: inactive
--
Compound: COc1cc2c(cc1OC)C1Cc3ccc(OC)c(OC)c3CN1CC2 (stereo unspecified)
Class assignment: inactive

Exercise: Can you look up the reported call for CS(=O)(=O)Nc1cccc(-c2nccc(-n3ccnc3)n2)c1 for me?
Key: inactive

Exercise: Hello, I am checking results. What call was entered for COc1ccccc1CNc1ncncc1-c1ccccc1C ?
Key: inactive

Exercise: Tell me the recorded outcome of this test for Cc1noc(C)c1-c1ccc2ncnc(NCc3ccccc3)c2c1 .
Key: inactive

Exercise: Please share the test call associated with CN(C)C(=O)c1ccc(-c2nc(NCc3cccs3)c3ccccc3n2)cc1 .
Key: inactive

Exercise: So what was the verdict on COc1ccc(CNc2cc(-c3ccccc3CN(C)C)ncn2)c(OC)c1 in this test?
Key: inactive

Exercise: Called result for CS(=O)(=O)Nc1cccc(-c2nc(NCc3cccs3)c3ccccc3n2)c1
Key: inactive

Exercise: # outcome recorded in this test, key = Cc1cnc(CNc2ncncc2-c2ccccc2CN(C)C)cn1
Key: inactive

Exercise: What call does the record list for Cc1cccc(CNc2ccnc(-c3ccc(C(=O)N(C)C)cc3)n2)c1 ?
Key: inactive

Exercise: Test call, this compound: O=C1CC[C@@]23/C=C/C(=O)NCCCCNCCCNC(=O)/C=C/c4ccc(c2c4)OC3C1 (stereo partly specified)
Key: inactive

Exercise: # fetch the recorded call for COc1cc(C)c2c(c1C=O)Oc1c(c(C)c(O)c3c1C(O)OC3=O)OC2=O (stereo unspecified) here
Key: inactive

---

List of activity, negative = inhibition values.
- Assay text: Stat Signaling Pathway (AID 446);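 further: ME-180 cervical cancer cells given 40 pM IL-6 alongside compound; SIE-controlled beta-lactamase reporter measured as 460/530 nm FRET emission ratio; on the % scale 0 is the no-effect control and ±100 the full control effect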
- Condition: ME-180 (cervical carcinoma) SIE beta-lactamase reporter, IL-6 stimulated, 5 h; at 7.69 µM (top of the series) unless noted
Inconclusive results are not listed.
Write down the numeric answer in % and omit the unit.

Here is how some compounds turned out for activity, negative = inhibition.
Smiles record: COc1ccc(Oc2ncc3ncc(=O)n(Cc4ccc(F)cc4)c3n2)cc1
Output unit: %
activity, negative = inhibition: -0.377
--
Smiles record: COCC(=O)N1CCC2(CCCN(Cc3ccccc3)C2)CC1
Output unit: %
activity, negative = inhibition: 0.327
--
Smiles record: COCCn1c(=O)c(-c2ccc(F)cc2)nc2cnc(Oc3ccc(OC)cc3)nc21
Output unit: %
activity, negative = inhibition: -13.7
--
Smiles record: Cc1cnc(CNc2ccnc(-c3ccoc3)n2)cn1
Output unit: %
activity, negative = inhibition: 7.07
--
Smiles record: N#CCCn1c(=O)c(-c2cccs2)nc2cnc(N3CCOCC3)nc21
Output unit: %
activity, negative = inhibition: 17.9

Please fill in: activity, negative = inhibition reported for CN1CCN(c2ncncc2-c2ccc(N(C)C)cc2)CC1 = 3.73

GET /value?item= COC(=O)N1CCC2(CCN(Cc3ccccc3)CC2)CC1 &field=activity, negative = inhibition returns -1.16

What the record says about COCC(=O)N1CCC2(CCN(Cc3ccc(C#N)cc3)CC2)CC1 : activity, negative = inhibition is -0.16

---

- Assay text: qHTS Assay for Lipid Storage Modulators (AID 1519)
- Condition: Drosophila S3 cells, BODIPY lipid droplet/cell ratio, laser cytometry; measured here: cell count channel max response; cells loaded with oleic acid
Results filed as inconclusive are left out.
We begin with a simple list: items and their reported max response.
Express it in %; write the number only.

Completed entries (count: 5):
Smiles record: COc1ccccc1CN1CCC2(CC1)CCN(S(C)(=O)=O)CC2
Output unit: %
max response: -18.8

Smiles record: COc1ccccc1CN1CCCC2(CCN(C(=O)c3cccn3C)CC2)C1
Output unit: %
max response: 21.7

Smiles record: c1ccc(Nc2ncnc3ccc(-c4ccc5c(c4)OCO5)cc23)cc1
Output unit: %
max response: -12.2

Smiles record: CN(C)C(=O)c1ccc(-c2ccc3ncnc(NCc4cccnc4)c3c2)cc1
Output unit: %
max response: 9.7

Smiles record: N#Cc1ccc(CN2CCC3(CC2)CCN(S(=O)(=O)c2ccccc2)CC3)cc1
Output unit: %
max response: 11.7

Entry O=C(c1cccc(F)c1)N1CCC2(CCN(Cc3nccs3)CC2)CC1 ; max response = 8.7

For record Cc1cccc(CNc2cc(-c3cccc(NS(C)(=O)=O)c3)ncn2)c1 the listed max response is -3.18

The reported value for CN(Cc1ccco1)c1nc(-c2ccccc2Cl)nc2ccccc12 in terms of max response is 14.1

Measured max response of CC(C)CN1CC[C@@]2(CCCN(C(=O)c3ccco3)C2)C1 : 3.5

Consider Cc1cnc(CNc2ncncc2-c2ccccc2CN(C)C)cn1 . Its measured max response is 4.47

The measured max response associated with O=C(c1cc(C(F)(F)F)cc(C(F)(F)F)c1)N1CCC2(CC1)CN(Cc1ccccc1)C2 reads 22.2
